Reference for the values: the NIST ThermoML archive (doi:10.1016/j.fluid.2016.02.004)

test: activity coefficient (dimensionless); of the first substance listed, at infinite dilution; xn = mol fraction of the nth substance listed; settings: 348.15 K; Liquid; Chromatography; x1 = 0
outcome-measure: activity coefficient

For orientation, consider the following solved cases.
{"columns": ["compound", "activity coefficient"],
 "data": [
  ["CCC(=O)OC [methyl propanoate] + CCCCn1cc[n+](C)c1.N#CN=C=[N-]", 2.7],
  ["CCOC(C)=O [ethyl acetate] + CCCCn1cc[n+](C)c1.N#CN=C=[N-]", 2.91],
  ["CCCCO [butan-1-ol] + CCCCn1cc[n+](C)c1.N#CN=C=[N-]", 1.13],
  ["CCC(C)(C)OC [2-methoxy-2-methylbutane] + CCCCn1cc[n+](C)c1.N#CN=C=[N-]", 11.8],
  ["COC(C)(C)C [2-methoxy-2-methylpropane] + CCCCn1cc[n+](C)c1.N#CN=C=[N-]", 8.14],
  ["CCCCC [pentane] + CCCCn1cc[n+](C)c1.N#CN=C=[N-]", 37.3],
  ["C#CCCCC [1-hexyne] + CCCCn1cc[n+](C)c1.N#CN=C=[N-]", 6.49],
  ["C=Cc1ccccc1 [styrene] + CCCCn1cc[n+](C)c1.N#CN=C=[N-]", 2.53]
]}

1. CCCCCCCCC [nonane] + CCCCn1cc[n+](C)c1.N#CN=C=[N-]
2. C1CCCCCCC1 [cyclooctane] + CCCCn1cc[n+](C)c1.N#CN=C=[N-]
3. C1=CCCCC1 [cyclohexene] + CCCCn1cc[n+](C)c1.N#CN=C=[N-]
4. C=CCCCCCC [oct-1-ene] + CCCCn1cc[n+](C)c1.N#CN=C=[N-]
Query :: Arrange by activity coefficient, high to low. Enter labels, ranked according to the request.
Result :: 1, 4, 2, 3

* * *

test: activity coefficient (dimensionless); of the first substance listed, at infinite dilution; xn = mol fraction of the nth substance listed; settings: 328.15 K; Liquid; Chromatography; x1 = 0
outcome-measure: activity coefficient

{"columns": ["compound", "activity coefficient"],
 "data": [
  ["CC(C)OC(C)C [diisopropyl ether] + CCCCn1cc[n+](C)c1.N#CN=C=[N-]", 20.9],
  ["Cc1ccc(C)cc1 [1,4-dimethylbenzene] + CCCCn1cc[n+](C)c1.N#CN=C=[N-]", 4.62],
  ["Cc1cccc(C)c1 [1,3-dimethylbenzene] + CCCCn1cc[n+](C)c1.N#CN=C=[N-]", 4.82]
]}

1. C1=CCCCC1 [cyclohexene] + CCCCn1cc[n+](C)c1.N#CN=C=[N-]
2. C=CCCCCC [1-heptene] + CCCCn1cc[n+](C)c1.N#CN=C=[N-]
3. CCCOCCC [dipropyl ether] + CCCCn1cc[n+](C)c1.N#CN=C=[N-]
4. CCCC(=O)OC [methyl butanoate] + CCCCn1cc[n+](C)c1.N#CN=C=[N-]
Query :: # desc sort on activity coefficient across 4 compounds List the labels, following the order given in the request.
Result :: 2, 3, 1, 4
(2: 38.5, 3: 20.5, 1: 11.4, 4: 3.61)

P. CCOC(C)(C)C [2-ethoxy-2-methylpropane] + CCCCn1cc[n+](C)c1.N#CN=C=[N-]
Q. C#CCCCCC [1-heptyne] + CCCCn1cc[n+](C)c1.N#CN=C=[N-]
Query :: Two entries are listed, P and Q . Which one carries the higher activity coefficient? # answer = label of selected item
Result :: P
(P: 18.4, Q: 8.61)

1. CC#N [acetonitrile] + CCCCn1cc[n+](C)c1.N#CN=C=[N-]
2. COC(C)=O [methyl ethanoate] + CCCCn1cc[n+](C)c1.N#CN=C=[N-]
3. CO [methanol] + CCCCn1cc[n+](C)c1.N#CN=C=[N-]
4. CCCCCCCCCC [decane] + CCCCn1cc[n+](C)c1.N#CN=C=[N-]
Query :: Arrange the 4 entries by activity coefficient so the values rise. Please respond with the labels ordered as the question requires.
Result :: 3, 1, 2, 4

I. CCO [ethanol] + CCCCn1cc[n+](C)c1.N#CN=C=[N-]
II. C1CCCCCC1 [cycloheptane] + CCCCn1cc[n+](C)c1.N#CN=C=[N-]
III. CCC(=O)OC [methyl propanoate] + CCCCn1cc[n+](C)c1.N#CN=C=[N-]
IV. CCCCCCC [heptane] + CCCCn1cc[n+](C)c1.N#CN=C=[N-]
V. C=CCCC [1-pentene] + CCCCn1cc[n+](C)c1.N#CN=C=[N-]
Query :: Given 5 compounds, produce a descending ranking by activity coefficient. Kindly provide the labels arranged according to the requested ordering.
Result :: IV, II, V, III, I
